# System Under Test: Bombesin receptor subtype-3 (Rattus norvegicus)
# Test Name: Agonist activity at rat BRS3 expressed in HEK293AEQ cells after 10 mins by aequorin bioluminescence assay relative to dY-peptide
# Format: functional, cell-based
# Parameters: concentration or dose not given beside the values
Experimental Endpoint: Activity (%)
Write it as a number; the unit % goes unstated.

Smiles Data: CC(C)(C)CN1CCc2c(c(N3CCCCC3)nc3[nH]nc(N)c23)C1
Activity, %: 91

Smiles Data: CC(=O)Nc1n[nH]c2nc(N3CCCCC3)c3c(c12)CCN(Cc1ccccc1)C3
Activity, %: 94

Smiles Data: Nc1n[nH]c2nc(Nc3ccccc3)c3c(c12)CCN(Cc1ccccc1)C3
Activity, %: 60

Smiles Data: CCC(=O)Nc1n[nH]c2nc(N3CCCCC3)c3c(c12)CCN(Cc1ccccc1)C3
Activity, %: 103

Smiles Data: Nc1n[nH]c2nc(NC3CCCCC3)c3c(c12)CCN(Cc1ccccc1)C3
Activity, %: 50

Request: Give its Activity value. Item: CC1CCN(c2nc3[nH]nc(N)c3c3c2CN(Cc2ccccc2)CC3)CC1
Result: 96

Request: Give its Activity value. Item: CC(C)CN1CCc2c(c(N3CCCCC3)nc3[nH]nc(N)c23)C1
Result: 61

Request: Give its Activity value. Item: CC(C)(C)CNc1n[nH]c2nc(N3CCCCC3)c3c(c12)CCN(Cc1ccccc1)C3
Result: 94

Request: Give its Activity value. Item: Nc1n[nH]c2nc(N3CCCCC3)c3c(c12)CCN(Cc1ccc2c(c1)OCO2)C3
Result: 94

Request: Give its Activity value. Item: Nc1n[nH]c2nc(N3CCCCCC3)c3c(c12)CCN(Cc1ccccc1)C3
Result: 100

Request: Give its Activity value. Item: Nc1n[nH]c2nc(N3CCCCC3)c3c(c12)CCNC3
Result: 15
